procedure.details: Apparent permeability through Caco-2 cell monolayers
measurement.setup: human, Caco-2
readout: Papp B→A

Problem: Which Papp B→A value is on record for NC[C@H]1OB(O)c2c(OCCCO)cccc21 [EBO, Epetraborole] ?
Result: ≤ 0.35 ×10⁻⁶ cm/s

---

target.under.test: CYP2C19 (Homo sapiens, UniProt P33261)
Sequence (P33261 whole entry): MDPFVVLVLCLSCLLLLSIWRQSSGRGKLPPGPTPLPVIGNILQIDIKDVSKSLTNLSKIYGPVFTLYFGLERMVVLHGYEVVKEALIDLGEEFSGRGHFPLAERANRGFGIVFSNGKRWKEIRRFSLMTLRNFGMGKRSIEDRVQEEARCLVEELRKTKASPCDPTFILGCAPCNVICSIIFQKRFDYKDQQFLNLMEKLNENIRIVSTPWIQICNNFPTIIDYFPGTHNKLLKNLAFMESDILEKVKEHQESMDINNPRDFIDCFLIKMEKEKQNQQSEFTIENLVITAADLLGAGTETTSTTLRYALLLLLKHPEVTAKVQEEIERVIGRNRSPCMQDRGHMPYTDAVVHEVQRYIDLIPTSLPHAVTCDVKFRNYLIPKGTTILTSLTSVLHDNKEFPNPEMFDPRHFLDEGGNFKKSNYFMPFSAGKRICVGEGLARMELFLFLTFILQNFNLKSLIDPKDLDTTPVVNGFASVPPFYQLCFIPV
pIC50: −log10 of the molar value.
readout: pIC50

Problem: Which pIC50 value is on record for "NC[C@H]1OB(O)c2c(OCCCO)cccc21" ?
Result: < 4.00

---

target.under.test: OATP1B1 (Homo sapiens)
Sequence (Q9Y6L6 whole entry): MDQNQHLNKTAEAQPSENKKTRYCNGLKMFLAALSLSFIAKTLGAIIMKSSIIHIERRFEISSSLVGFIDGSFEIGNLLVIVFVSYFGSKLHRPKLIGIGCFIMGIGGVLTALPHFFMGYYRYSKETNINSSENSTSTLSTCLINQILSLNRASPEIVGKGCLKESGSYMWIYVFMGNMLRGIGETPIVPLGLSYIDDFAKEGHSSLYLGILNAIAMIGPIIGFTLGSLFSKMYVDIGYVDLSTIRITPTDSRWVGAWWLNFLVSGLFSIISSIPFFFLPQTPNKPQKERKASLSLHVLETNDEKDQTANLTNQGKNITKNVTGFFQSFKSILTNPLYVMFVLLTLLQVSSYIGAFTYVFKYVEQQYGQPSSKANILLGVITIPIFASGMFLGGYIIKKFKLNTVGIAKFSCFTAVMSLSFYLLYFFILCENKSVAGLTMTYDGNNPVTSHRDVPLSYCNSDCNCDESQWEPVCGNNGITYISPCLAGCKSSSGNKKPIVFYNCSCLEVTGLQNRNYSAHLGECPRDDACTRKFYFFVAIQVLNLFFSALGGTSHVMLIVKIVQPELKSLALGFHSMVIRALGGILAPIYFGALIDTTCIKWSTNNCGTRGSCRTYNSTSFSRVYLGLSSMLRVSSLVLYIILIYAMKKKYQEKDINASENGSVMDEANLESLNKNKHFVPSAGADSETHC
procedure.details: Uptake transporter inhibition in transfected HEK 293 or MDCK cells
measurement.setup: read-out: as an Inhibitor, IC50
readout: IC50

Problem: Which IC50 value is on record for "NC[C@H]1OB(O)c2c(OCCC(=O)O)cccc21" ?
Result: > 250 µM

// data source = paper PMC10818931
